Listing of entries alongside the reported protein stability index.
- experimental-details: protein stability index of a GFP-peptide fusion (GPS, HEK-293T) (PSI 1-6); higher = more stable;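 note: 24-mer peptide tiles fused after GFP, lentivirally expressed, FACS-sorted into six equal bins by GFP/DsRed ratio, decoded by Illumina sequencing, PSI is the read-weighted mean bin number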
- assay-conditions: treatment: DMSO; c terminus: native
Answer using only a numeral; do not append any unit.

- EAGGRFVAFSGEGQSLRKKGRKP [UFD1]: 2.75

So what does the record say about protein stability index for RLVVQRCSGQKWMIRNWIKHARH [GALNT9] ? 3.21

So what does the record say about protein stability index for ESGLRSLRLFQKLEENGDLYLAV [WDR41] ? 2.08

* * *

- experimental-details: protein stability index of a GFP-peptide fusion (GPS, HEK-293T) (PSI 1-6); higher = more stable
- assay-conditions: treatment: MLN4924 1 uM, 8 h; c terminus: a fixed tail appended
// 0 (no) strictly below 3 in protein stability index; 1 (yes) otherwise

• VCEEQKCEEEVFPLAMNYLDRFLS [CCND1] = 1 (yes)
• PRPGTGQSRSFRILAHLTGTEFMQ [PDLIM7] = 0 (no)
• SWEVVRNPLIASSFSLVKLVLRRQ [C22orf31] = 0 (no)
• YGLDSVKKKCLEWLLNNLMTHQNV [GMCL1] = 0 (no)
• SGRGTGRGGGGGGGGGAPRGRYGP [SRSF1] = 1 (yes)
• VRKWRVKSALGAMGQWQLEVGDPA [DPCD] = 0 (no)
• VVHEDFREDILSCYDVYSPDKEEQ [PKD2L1] = 1 (yes)
• ELVLVSAGFDAARGDPLGGCQVSP [HDAC6] = 1 (yes)
• LGAEESLGLLDDYLEVAKHFKPHG [ATF4] = 1 (yes)
• MSDTAVADTRRLNSKPQDLTDAYG [SNX12] = 1 (yes)

Shifting focus to the sequence that follows.
API: above_or_equal(metric=protein stability index, cutoff=3) for item ELALALKGNTTLQQLDLRWNNVGL [LRRC45] 0 (no)

* * *

- experimental-details: protein stability index of a GFP-peptide fusion (GPS, HEK-293T) (PSI 1-6); higher = more stable
- assay-conditions: treatment: DMSO; c terminus: a fixed tail appended
// not fulfilled strictly below 3 in protein stability index; fulfilled otherwise

* ELRRLFLVQDLVDSLKFAVLMWLL [RTN1] | not fulfilled
* ARARERERLAHSRAAAAAAVAAAT [KCNA4] | fulfilled
* FLKAVLRQERVSLYPFQIHSIALS [CDS1] | not fulfilled
* KVIYLDDDVIVQGDIQELYDTTLA [GLT8D2] | not fulfilled
* IALFTARLHHPHKSVQHVVLQALF [PTPN9] | not fulfilled
* KLRHLDISRDRLSSYYKFKLTREV [ZER1] | not fulfilled

Shifting focus to the sequence that follows.
API: above_or_equal(metric=protein stability index, cutoff=3) for item QFLDIGPDVTRVGLLQYGSTVKNE [MATN2] fulfilled

* * *

- experimental-details: protein stability index of a GFP-peptide fusion (GPS, HEK-293T) (PSI 1-6); higher = more stable
- assay-conditions: treatment: MLN4924 1 uM, 8 h; c terminus: a fixed tail appended
// False strictly below 3 in protein stability index; True otherwise

See these solved cases before continuing.
• ESRAPSPLLHKDSASLEVVKKDHV [CBY2] = True
• VSRGPGVNVGTTALWKHLKSMHRE [ZBED2] = True

API: above_or_equal(metric=protein stability index, cutoff=3) for item VISPMYQLHKPLAEGTPRSNHSAQ [IKZF1] True

API: above_or_equal(metric=protein stability index, cutoff=3) for item FPVSVTQQSPAAVSMETYHVTLTL [C2CD2L] False

API: above_or_equal(metric=protein stability index, cutoff=3) for item MQKEDNQVDVRFFGHHHQRAWIPS [ZMYND11] True

API: above_or_equal(metric=protein stability index, cutoff=3) for item ALVSHPEVPLISFTGSQPTAERIT [ALDH8A1] True

API: above_or_equal(metric=protein stability index, cutoff=3) for item DMSWTCGNQDYKYRVSDVTKAGHS [VDR] False

API: above_or_equal(metric=protein stability index, cutoff=3) for item LRRGHPAGGEENMTETDAFYKREM [CASP6] True

API: above_or_equal(metric=protein stability index, cutoff=3) for item AAIKVNDSVPFHLGWNSTERSLRL [MYORG] False

API: above_or_equal(metric=protein stability index, cutoff=3) for item PRNADKIRVKIADLGNACWVHKHF [SRPK2] False

API: above_or_equal(metric=protein stability index, cutoff=3) for item RNTHKDLLRFAQVFSQMIHLNETV [FEM1B] False

API: above_or_equal(metric=protein stability index, cutoff=3) for item MLDFLSERPWIKRMIFKLFSQETV [APMAP] False

API: above_or_equal(metric=protein stability index, cutoff=3) for item LRRRIENGAKELWFFLQSELKKLK [FUT8] False

* * *

- experimental-details: protein stability index of a GFP-peptide fusion (GPS, HEK-293T) (PSI 1-6); higher = more stable
- assay-conditions: treatment: MLN4924 1 uM, 8 h; c terminus: a fixed tail appended
// False strictly below 3 in protein stability index; True otherwise

See these solved cases before continuing.
• ESASSQSGCLRISIQKLSNESRYM [NECAB1] = False
• GTIFIRNVLLFKKQNPGKFCLLSC [RETREG3] = False
• LQLYFWKDREFHELQGDFSVPDVP [VPS39] = False
• RFYYSEDDHGDECSYTDLLPQDEG [KCNA4] = True
• SKCQRLFRSPSMPCSVIRPILKRL [CDC25B] = False

API: above_or_equal(metric=protein stability index, cutoff=3) for item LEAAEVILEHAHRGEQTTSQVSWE [FCHSD1] True

API: above_or_equal(metric=protein stability index, cutoff=3) for item ASQHSYPLNRFSSVPLDPMERPMS [CBY2] True

API: above_or_equal(metric=protein stability index, cutoff=3) for item SNSADDETDDPRRYQKYGYIGTHE [OAS1] True

API: above_or_equal(metric=protein stability index, cutoff=3) for item GKAAQAGVAVGDWVLSIDGENAGS [PDLIM7] True

* * *

- experimental-details: protein stability index of a GFP-peptide fusion (GPS, HEK-293T) (PSI 1-6); higher = more stable
- assay-conditions: treatment: DMSO; c terminus: a fixed tail appended
metric-name: protein stability index
Answer using only a numeral; do not append any unit.

Solved entries (count: 2):
- EGKMYTARKGKGAFCNGQKLQVSQ [IMPA1]: 3.52
- ETWNPFKLQYQLRNVRERIAKNLV [GOLPH3L]: 2.37

So what does the record say about protein stability index for VMFKEPIEILPNVCYTACATLKGP [BTBD1] ? 2.12

So what does the record say about protein stability index for RGQVGLVPKNYVVVLSDGPALHPA [NCK2] ? 2.56

So what does the record say about protein stability index for MAKRIGKDLSNTFAKLEKLTILAK [STX5] ? 2.77

So what does the record say about protein stability index for LALRGRLQLEACGMRRKSLLTRKV [GOLPH3] ? 2.26

So what does the record say about protein stability index for TLLPWNFFMTATQYFTNRLDMSQN [SLC29A1] ? 2.9

* * *

Listing of entries alongside the reported protein stability index.
- experimental-details: protein stability index of a GFP-peptide fusion (GPS, HEK-293T) (PSI 1-6); higher = more stable
- assay-conditions: treatment: DMSO; c terminus: a fixed tail appended

Solved entries (count: 4):
- ENTAETITRVLYEVFIEWGISAKV [ZBED1]: 2.82
- PETLTNLRKGYLFMYNLVQFLGFS [HACD3]: 2.34
- ELEKNFSNFPRQYFALRKILKQLI [TRIM39]: 2.58
- ELERFVNLHSLALDFCDFTAEMAR [FBXO33]: 2.23

So what does the record say about protein stability index for LYCSTPTRTAEPAESSVPPVTSIG [SLC35F2] ? 3.98

So what does the record say about protein stability index for VTNHNIRLFEDVRSWMFRRGPLNS [TRIM43] ? 2.56

So what does the record say about protein stability index for QDLVELYLTNCEKLSAKSLQTLRS [ZER1] ? 2.1

So what does the record say about protein stability index for LANPVLESTPVGTVVGLFNVRDRD [PCDHGC5] ? 4.08

So what does the record say about protein stability index for TNTLTRIAENGVSERDSEAAKQNH [EHMT1] ? 5.41

So what does the record say about protein stability index for SPTFPALGIGMDSCVIPLRHGGLS [SEPHS2] ? 2.98

So what does the record say about protein stability index for AWSQRSAAGRVCRPPGPAGTEQSR [CPOX] ? 4.16

So what does the record say about protein stability index for ETLKHIKATEPTETVQTWIELLTG [GOLPH3L] ? 2.59

So what does the record say about protein stability index for DMSWTCGNQDYKYRVSDVTKAGHS [VDR] ? 2.73

So what does the record say about protein stability index for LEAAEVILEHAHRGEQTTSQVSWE [FCHSD1] ? 3.63
